Target: human recombinant USP30 (Homo sapiens, UniProt Q70CQ3)
Sequence (Q70CQ3 whole entry): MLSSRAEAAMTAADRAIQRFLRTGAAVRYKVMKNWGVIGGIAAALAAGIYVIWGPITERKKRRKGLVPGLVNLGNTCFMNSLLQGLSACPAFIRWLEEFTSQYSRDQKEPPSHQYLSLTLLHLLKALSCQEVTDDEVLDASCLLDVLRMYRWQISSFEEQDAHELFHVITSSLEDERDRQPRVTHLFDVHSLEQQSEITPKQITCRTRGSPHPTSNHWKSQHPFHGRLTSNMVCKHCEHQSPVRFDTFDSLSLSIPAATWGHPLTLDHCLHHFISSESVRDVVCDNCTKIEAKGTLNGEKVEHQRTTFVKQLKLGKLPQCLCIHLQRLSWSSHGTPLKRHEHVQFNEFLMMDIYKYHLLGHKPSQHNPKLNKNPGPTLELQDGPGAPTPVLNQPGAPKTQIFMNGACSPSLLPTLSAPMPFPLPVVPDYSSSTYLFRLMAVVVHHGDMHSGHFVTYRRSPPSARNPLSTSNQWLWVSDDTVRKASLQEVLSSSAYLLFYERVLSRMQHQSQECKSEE
Assay: Ubiquitin-Rhodamine 110 Assay for USP30 Activity (USP30 biochemical assay)
Settings: IC50 ranges; 0.4 nM enzyme, 25 nM Ub-Rh110, 30 min preincubation, test concentration 25 μM to 1.3 nM
Excerpt: Assay Example A: Description of Biochemical Assay: Ubiquitin-Rhodamine 110 Assay for USP30 Activity […] For all assay formats, data were reported as percent inhibition compared with control wells based on the following equation: % inh=1−((FLU−AveLow)/(AveHigh−AveLow)) where FLU=measured Fluorescence, AveLow=average Fluorescence of no enzyme control (n=32), and AveHigh=average Fluorescence of DMSO control (n=32). […]
reported endpoint: IC50

Examples from the recorded data:
*Q* Any idea what its IC50 is? The molecule is N#CN1CCN2CCN(c3cc(-c4ccccc4Oc4ccccc4)[nH]n3)C(=O)[C@H]2C1 (single isomer, unassigned) [Compound 1-114R]
*A* 0.1 to 1 µM

*Q* Same question, N#CN1CCN2CCN(c3ncc(-c4cccc(Cl)c4)cn3)C(=O)[C@@H]2C1 (single isomer, unassigned) this time
*A* 1 to 10 µM

*Q* Here is the next molecule: N#CN1CC[C@@H]2CCN(c3ncc(C4CCCCC4)s3)C(=O)[C@H]2C1 (single isomer, unassigned) [1-12R,R]
*A* 0.1 to 1 µM

*Q* Same again, this time with N#Cc1cccc(-c2cnc(N3C[C@H]4CCN(C#N)C[C@H]4C3)nc2)c1 (single isomer, unassigned)
*A* 10 to 25 µM

Others:
*Q* State the recorded IC50 for this entry: N#CN1CCN2CCN(c3cc(-c4cccc(Cl)c4)on3)C(=O)[C@H]2C1 (single isomer, unassigned) [Compound 1-11R]
*A* > 25 µM

*Q* Now this one: CC(C)(C)c1sc(N2CCN3CCN(C#N)C[C@H]3C2=O)nc1Cl (single isomer, unassigned)
*A* < 0.1 µM
